- Assay system: Estrogen receptor (Homo sapiens)
- Sequence (P03372 whole entry): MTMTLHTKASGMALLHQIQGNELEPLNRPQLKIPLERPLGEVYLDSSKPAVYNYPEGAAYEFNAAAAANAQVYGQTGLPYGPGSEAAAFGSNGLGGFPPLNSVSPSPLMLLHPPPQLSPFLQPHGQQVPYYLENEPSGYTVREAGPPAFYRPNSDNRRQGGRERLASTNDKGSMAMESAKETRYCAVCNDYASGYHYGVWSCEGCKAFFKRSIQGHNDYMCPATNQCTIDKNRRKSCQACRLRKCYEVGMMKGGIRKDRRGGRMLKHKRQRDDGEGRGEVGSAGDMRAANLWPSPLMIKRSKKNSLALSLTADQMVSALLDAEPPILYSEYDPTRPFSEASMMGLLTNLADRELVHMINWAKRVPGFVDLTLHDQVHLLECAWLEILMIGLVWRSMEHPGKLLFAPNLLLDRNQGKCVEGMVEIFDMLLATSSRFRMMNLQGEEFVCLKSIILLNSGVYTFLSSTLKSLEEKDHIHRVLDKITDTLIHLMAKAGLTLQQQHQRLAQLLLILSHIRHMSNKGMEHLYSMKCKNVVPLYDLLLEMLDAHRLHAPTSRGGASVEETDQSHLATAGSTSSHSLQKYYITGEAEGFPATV
- Experiment: fluorescent estrogen displacement from ERalpha – cell-based, Cos7 ERalpha-GFP, flow cytometry, dose response (AID 1223)
- Condition details: inactive by the depositor's call
Examples of compounds with documented EC50 follow.
The response must be a number in nM with no trailing unit.

| Compound | Reported endpoint | Numeric value |
| --- | --- | --- |
| Cn1ccnc1SCC(=O)Nc1ccc2nc(SCC(=O)NC3CC3)sc2c1 | EC50 | 24.3 |
| Cc1nnc(SCC(=O)NC(=O)NCc2ccco2)n1Cc1ccccc1 | EC50 | 44.7 |
| O=C(OCC(=O)N1CCN(C(=O)c2ccco2)CC1)c1cc(-c2ccco2)nc2ccccc12 | EC50 | 33.9 |
| COc1cccc(NS(=O)(=O)c2ccc3c(c2)C2C=CCC2C(c2ccc(C(=O)O)cc2)N3)c1 (stereo not given) | EC50 | 3880 |

stdin: Recall the reported EC50 of COc1ccc(CNC(=O)c2cc(-c3cccs3)on2)cc1 on Estrogen receptor (Homo sapiens) and write it down.
stdout: 9.68
